- procedureDetails: basal 3T3-L1 adipocyte mitochondrial potential changes, profiling panel, cell-based, JC-1 fluorescence, 3T3-L1 adipocytes, 24 h, 100 nL compound (AID 1168); also: test concentration not given here
- experimentalConditions: JC-1 mitochondrial fluorescence, higher = more signal, called active from +8 up or from −8 down
Active and inactive are the calls of the source.
Item-by-item account of z-score

Completed entries (count: 8):
{"molecule": "CS(=O)(=O)CCOC(=O)C1=CC(CCCO)=CC(c2cccs2)N(Cc2cc3c(cc2Br)OCO3)C=C1C(=O)OCCS(C)(=O)=O (configuration not stated)", "z-score": "0.252 (inactive)"}
{"molecule": "O=C1O[C@@H](c2ccccc2)[C@@H](c2ccccc2)N2[C@@H](c3ccc(OCCO)cc3)[C@]3(C(=O)Nc4ccccc43)[C@@H](C(=O)Nc3nc4ccccc4s3)[C@H]12", "z-score": "2.07 (inactive)"}
{"molecule": "C=C[C@@H](COC(C)=O)N(Cc1ccccc1[N+](=O)[O-])S(=O)(=O)c1ccc(Br)cc1", "z-score": "-0.34 (inactive)"}
{"molecule": "COCCOC(=O)N1C(=O)[C@@]2(c3cc(C#CCNC(N)=O)ccc31)[C@H](c1ccc(O)cc1)N1[C@H](c3ccccc3)[C@H](c3ccccc3)OC(=O)[C@H]1[C@@H]2C(=O)Nc1nc2ccccc2s1", "z-score": "1.56 (inactive)"}
{"molecule": "CC(=O)NCCCC[C@@H]1NC(=O)[C@@H]2C[C@H](C(=O)NCCCCCCNC(=O)CS)[C@H](c3ccc(O)cc3)N2C1=O", "z-score": "-0.744 (inactive)"}
{"molecule": "COc1ccc([Si](C)(C)[C@H]2[C@H](CC(=O)N(CCO)Cc3ccccc3)O[C@@]3(C(=O)N(Cc4cccc(N5CCC5=O)c4)c4ccccc43)[C@@H]2C)cc1", "z-score": "0.498 (inactive)"}
{"molecule": "O=C(CS)NCCCCCCNC(=O)[C@H]1C[C@H]2C(=O)N3CCC[C@H]3C(=O)N2[C@H]1c1cccc(OCCO)c1", "z-score": "-0.955 (inactive)"}
{"molecule": "COCC(=C=CC[C@@H](O)c1ccc(CO)o1)CCO", "z-score": "-0.24 (inactive)"}

// moving on: another record for z-score
Lookup: I have this molecule here, C=CCC(OC(C)=O)[C@@H]1[C@@H](N(Cc2ccc(-c3cccc(C(F)(F)F)c3)o2)C(=O)c2ccc(C)cc2)c2cc(OCCCO)ccc2N1C(=O)c1ccc(-c2ccccc2)cc1 (some centres not stated) , and I need its recorded z-score.
Found: -1.29 (inactive)

###

- procedureDetails: Plasmodium falciparum growth inhibition, primary screen, strain 3D7, DAPI fluorescence, 100 nL (AID 1184);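 also: parasites grown inside human red blood cells in medium with human serum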
- experimentalConditions: P. falciparum 3D7 growth, 3 d, higher = more signal
Please note: yes (1) applies when z-score is -0.1 or greater, and no (0) applies otherwise.

{"molecule": "CCCNC(=O)[C@@]1(c2ccc([N+](=O)[O-])cc2)CC(=O)N(CC23CC4CC(CC(C4)C2)C3)[C@@H]1c1ccc(CO)cc1", "qualitativeLabel": "yes (1)"}

Lookup: Threshold query (z-score >= -0.1) on `COc1ccc(CCNC(=O)[C@@]2(Sc3ccc(C)cc3)CC(=O)N(Cc3ccccc3Cl)[C@@H]2c2ccc(CO)cc2I)cc1`
Found: no (0)

###

- procedureDetails: inhibitors of hydroxyurea-induced Chk1 phosphorylation, primary screen, imaging, HeLa, phospho-Chk1 nuclear intensity (AID 1187); also: test concentration not given here
- experimentalConditions: hydroxyurea-induced phospho-Chk1 immunofluorescence imaging, higher = more signal
Activity calls are given as the source filed them. How the calls were made is not given here.
valueKind: z-score

{"compound": "COc1ccc(NN2C(C(O)c3ccc(OC)c(OCc4ccccc4)c3)C=CC3C(=O)N(C4CCCCC4)C(=O)C32)cc1 (centres undefined)", "recordedValue": "-0.892 (inactive)"}
{"compound": "COC(=O)[C@@]1(Cc2ccccc2)[C@H]2c3cc(C(=O)N4CCCC4)n(C)c3C[C@H]2CN1C(=O)c1ccccc1", "recordedValue": "-0.0761 (inactive)"}
{"compound": "O=C1O[C@H](c2ccccc2)[C@H](c2ccccc2)N2[C@H]1[C@@H](C(=O)NC[C@H](O)c1ccccc1)[C@]1(C(=O)Nc3ccc(C#CCCO)cc31)[C@H]2c1ccc(O)cc1", "recordedValue": "0.0974 (inactive)"}

// moving on: another record for z-score
Lookup: I have this compound here, `CC(C)N1C(=O)[C@@]2(c3ccc([N+](=O)[O-])cc3)CC(=O)N(CC34CC5CC(CC(C5)C3)C4)[C@@H]2c2ccc(CO)cc21` , and I need its recorded z-score.
Found: -0.0138 (inactive)
